These measurements were taken from patent US20230081720A1.

Biological target: T1, soluble human CD74 (human, UniProt P04233-2 73-232, limits assumed)
T1 construct: CD74' flowed over as analyte; also called human CD74 protein
T1 sequence (looked up): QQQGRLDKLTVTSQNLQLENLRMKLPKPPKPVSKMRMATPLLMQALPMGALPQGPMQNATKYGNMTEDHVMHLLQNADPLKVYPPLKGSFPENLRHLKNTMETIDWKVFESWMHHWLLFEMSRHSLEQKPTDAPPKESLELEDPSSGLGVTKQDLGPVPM
Experiment: SPR, Biacore 8K; IgG captured by anti-IgG Fc, soluble CD74 as analyte; 1:1 model, apparent kinetics
valueType: koff (s⁻¹)

| binder | measurementUnits | measured |
| --- | --- | --- |
| Mil_HCx hzVk1b (antibody, V domains shown, Tested as IgG; also called hLL1 heavy chain with hzLL1-Vk1b light chain) VH: QVQLQQSGSELKKPGASVKVSCKASGYTFTNYGVNWIKQAPGQGLQWMGWINPNTGEPTFDDDFKGRFAFSLDTSVSTAYLQISSLKADDTAVYFCSRSRGKNEAWFAYWGQGTLVTVSS VL: DVVMTQSPLSLPVTLGQPASISCRSSQSLVHRNGNTYLHWYQQRPGQSPRLLIYTVSNRFSGVPDRFSGSGSGTDFTLKISRVEAEDVGVYFCSQSSHVPPTFGQGTKLEIK | s⁻¹ | 0.00017 |
| Hcmil x LCmil_NQ (antibody, V domains shown, Tested as IgG; also called hLL1 heavy chain with hLL1 (NQ) light chain) VH: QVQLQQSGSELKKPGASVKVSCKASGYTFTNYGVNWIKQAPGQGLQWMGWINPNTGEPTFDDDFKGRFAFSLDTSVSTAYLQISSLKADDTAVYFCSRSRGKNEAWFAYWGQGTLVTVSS VL: DIQLTQSPLSLPVTLGQPASISCRSSQSLVHRNQNTYLHWFQQRPGQSPRLLIYTVSNRFSGVPDRFSGSGSGTDFTLKISRVEAEDVGVYFCSQSSHVPPTFGAGTRLEIK | s⁻¹ | 0.00033 |
| Mil_HCx hzVk1a (antibody, V domains shown, Tested as IgG; also called hLL1 heavy chain with hzLL1-Vk1a light chain) VH: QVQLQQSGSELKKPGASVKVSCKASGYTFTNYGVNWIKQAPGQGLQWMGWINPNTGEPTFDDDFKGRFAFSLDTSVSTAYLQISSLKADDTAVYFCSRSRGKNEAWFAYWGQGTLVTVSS VL: DIVMTQTPLSLPVTPGEPASISCRSSQSLVHRNGNTYLHWYLQKPGQSPQLLIYTVSNRFSGVPDRFSGSGSGTDFTLKISRVEAEDVGVYFCSQSSHVPPTFGQGTKLEIK | s⁻¹ | 0.00018 |
